Assignment: determine reported % PUCCRT Disease level P7 at 4 ppm for the given molecules.
Test system: Puccinia recondita
methodSummary: Use Example 4: preventative control of brown rust on wheat (PUCCRT P7)
Type: in vivo
conditionLabel: inoculated seven days after spraying, 4 ppm, % diseased leaf area

// query State, in one line, measured % PUCCRT Disease level P7 at 4 ppm of CNC(=O)/C(=N/OC)c1cccc(Cl)c1CO/N=C(\COC)c1ccc(F)c(F)c1 [compound 97]
// result 23%

// query State, in one line, measured % PUCCRT Disease level P7 at 4 ppm of COC/C(=N\OCc1c(Cl)cccc1/C(=N\OC)C(=O)OC)c1ccccc1F [compound 19]
// result 53%

// query State, in one line, measured % PUCCRT Disease level P7 at 4 ppm of COC/C(=N\OCc1c(Cl)cccc1/C(=N\OC)C(=O)OC)c1cccc(Cl)c1 [compound 37]
// result 40%

// query State, in one line, measured % PUCCRT Disease level P7 at 4 ppm of CO/C=C(/C(=O)OC)c1cccc(Cl)c1CO/N=C(\COC)c1cc(Cl)ccc1F [compound 105]
// result 44%

// query State, in one line, measured % PUCCRT Disease level P7 at 4 ppm of CO/C=C(/C(=O)OC)c1cccc(Cl)c1CO/N=C(\COC)c1ccc(F)c(F)c1 [compound 92]
// result 3%

// query State, in one line, measured % PUCCRT Disease level P7 at 4 ppm of CO/C=C(/C(=O)OC)c1cccc(Cl)c1CO/N=C(\COC)c1c(F)cc(F)cc1F [compound 12]
// result 17%

// query State, in one line, measured % PUCCRT Disease level P7 at 4 ppm of CO/C=C(/C(=O)OC)c1cccc(Cl)c1CO/N=C(\COC)c1c(F)cc(Cl)cc1F [compound 115]
// result 57%

// query State, in one line, measured % PUCCRT Disease level P7 at 4 ppm of CCOC/C(=N\OCc1c(Cl)cccc1/C(=N\OC)C(=O)NC)c1ccccc1F [compound 22]
// result 53%

// query State, in one line, measured % PUCCRT Disease level P7 at 4 ppm of CCOC/C(=N\OCc1c(Cl)cccc1/C(=N\OC)C(=O)NC)c1ccc(Cl)cc1 [compound 46]
// result 60%

// query State, in one line, measured % PUCCRT Disease level P7 at 4 ppm of CCOC/C(=N\OCc1c(Cl)cccc1/C(=N\OC)C(=O)OC)c1ccc(F)cc1 [compound 24]
// result 68%

// query State, in one line, measured % PUCCRT Disease level P7 at 4 ppm of CO/C=C(/C(=O)OC)c1cccc(Cl)c1CO/N=C(\COC)c1ccc(Cl)c(Cl)c1 [compound 71]
// result 4%

// query State, in one line, measured % PUCCRT Disease level P7 at 4 ppm of CNC(=O)/C(=N/OC)c1cccc(Cl)c1CO/N=C(\COC)c1ccc(Cl)cc1F [compound 100]
// result 12%

// query State, in one line, measured % PUCCRT Disease level P7 at 4 ppm of COC/C(=N\OCc1c(Cl)cccc1/C(=N\OC)C(=O)OC)c1cccc(OC)c1 [compound 120]
// result 22%

// query State, in one line, measured % PUCCRT Disease level P7 at 4 ppm of CO/C=C(/C(=O)OC)c1cccc(Cl)c1CO/N=C(\COC)c1ccc(F)cn1 [compound 131]
// result 32%

// query State, in one line, measured % PUCCRT Disease level P7 at 4 ppm of CCOC/C(=N\OCc1c(Cl)cccc1/C(=N\OC)C(=O)NC)c1cccc(F)c1 [compound 42]
// result 62%

// query State, in one line, measured % PUCCRT Disease level P7 at 4 ppm of CNC(=O)/C(=N/OC)c1cccc(Cl)c1CO/N=C(/C#Cc1ccc(F)cc1)COC [compound 6]
// result 8%

// query State, in one line, measured % PUCCRT Disease level P7 at 4 ppm of CO/C=C(/C(=O)OC)c1cccc(Cl)c1CO/N=C(\COC)c1cc(F)c(F)c(F)c1 [compound 67]
// result 4%

Each recorded value in this set is attributed to patent US20260165323A1.
